test.target: Transcription intermediary factor 1-alpha (Homo sapiens) (UniProt O15164)
Sequence (whole entry): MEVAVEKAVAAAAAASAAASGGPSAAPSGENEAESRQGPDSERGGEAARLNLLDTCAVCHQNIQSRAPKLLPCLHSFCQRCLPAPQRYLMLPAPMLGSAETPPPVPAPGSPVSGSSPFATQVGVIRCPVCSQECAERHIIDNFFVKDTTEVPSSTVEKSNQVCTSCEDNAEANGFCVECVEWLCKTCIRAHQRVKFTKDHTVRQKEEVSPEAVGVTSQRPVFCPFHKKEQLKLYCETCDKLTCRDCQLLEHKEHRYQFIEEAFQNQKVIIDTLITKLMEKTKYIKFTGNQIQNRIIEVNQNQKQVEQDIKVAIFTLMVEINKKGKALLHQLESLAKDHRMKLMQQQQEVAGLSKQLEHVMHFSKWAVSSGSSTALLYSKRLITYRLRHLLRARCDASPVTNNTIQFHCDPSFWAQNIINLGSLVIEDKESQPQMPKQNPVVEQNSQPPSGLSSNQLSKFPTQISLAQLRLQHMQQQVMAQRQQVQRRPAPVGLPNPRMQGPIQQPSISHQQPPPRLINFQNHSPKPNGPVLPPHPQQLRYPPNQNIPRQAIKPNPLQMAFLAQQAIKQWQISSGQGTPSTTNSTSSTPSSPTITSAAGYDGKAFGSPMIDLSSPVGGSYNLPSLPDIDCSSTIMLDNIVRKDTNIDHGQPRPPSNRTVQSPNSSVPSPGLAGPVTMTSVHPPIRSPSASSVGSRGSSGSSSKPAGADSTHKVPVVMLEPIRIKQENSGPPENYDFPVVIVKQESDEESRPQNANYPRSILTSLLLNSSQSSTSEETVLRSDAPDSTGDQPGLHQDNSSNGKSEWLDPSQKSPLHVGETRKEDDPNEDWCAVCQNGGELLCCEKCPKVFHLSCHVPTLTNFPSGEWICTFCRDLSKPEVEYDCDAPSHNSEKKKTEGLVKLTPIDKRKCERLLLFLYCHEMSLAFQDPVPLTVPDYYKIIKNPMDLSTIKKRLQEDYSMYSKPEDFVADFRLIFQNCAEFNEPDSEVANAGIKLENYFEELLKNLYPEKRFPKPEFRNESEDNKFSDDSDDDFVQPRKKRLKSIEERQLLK
recorded.conditions: Compound concentration 20.0 uM, Protein concentration 2.0 uM, Result type QC Liability
Numbered stars: 1 amine (or outer) side, 2 acyl side, 3 side chain; on linkers, the order of the positions; unused ones are H or OH. Bridge positions count the residues as written; N and C are the ends. Square brackets hold non-standard residues; d marks the D form. Peptide text beside a SMILES is read from it. I, II: the chains in the order shown. Hexamethylenediamine = C(CCCN[*:2])CCN[*:1]; Dip = N[C@H](C(=O)O)C(c1ccccc1)c1ccccc1; Chg = N[C@H](C(=O)O)C1CCCCC1; NMeA = CN[C@@H](C)C(=O)O
Label scheme for ΔTm: lower than -2 °C is False, -2 °C and above is True.

Does the molecule `Cc1cccc(-c2[nH]c(CNc3ccccc3F)nc2-c2ccc3ncnn3c2)n1` have recorded ΔTm that is -2 °C or more?
False

Does the molecule CC(C)S(=O)(=O)c1ccccc1Nc1nc(N[C@@H]2CCCN(CCCCCCCNC(=O)COc3cccc4c3C(=O)N(C3CCC(=O)N(C)C3=O)C4=O)C2)ncc1Cl (some centres undefined) have recorded ΔTm that is -2 °C or more?
True

Does the molecule CN[C@@H](C)C(=O)N[C@H](C(=O)N1CCC[C@H]1C(=O)N[C@H](C(=O)NCCCCCCNC(=O)[C@@H](NC(=O)[C@@H]1CCCN1C(=O)[C@@H](NC(=O)[C@H](C)NC)C1CCCCC1)C(c1ccccc1)c1ccccc1)C(c1ccccc1)c1ccccc1)C1CCCCC1 (I: H-[NMeA][Chg]P[Dip] / II: H-[NMeA][Chg]P[Dip]; linker I:C-II:C via Hexamethylenediamine) have recorded ΔTm that is -2 °C or more?
False

Does the molecule `CCc1ncnc(N2CCN(C(C)=O)CC2)c1C#Cc1ccc(N)nc1` have recorded ΔTm that is -2 °C or more?
False

Does the molecule `O=C(O)CCCCN(CCc1cc(F)ccc1OCc1ccc(-c2ccc(C(F)(F)F)cc2)cc1)Cc1ccc(C(=O)O)cc1` have recorded ΔTm that is -2 °C or more?
True

Does the molecule `CCc1nc(-c2cccc(C)c2)c(-c2ccncc2)s1` have recorded ΔTm that is -2 °C or more?
False

Does the molecule `CC(=O)O[C@H]1C(=O)[C@@]2(C)[C@H]([C@H](OC(=O)c3ccccc3)[C@]3(O)C[C@H](OC(=O)[C@H](O)[C@@H](NC(=O)c4ccccc4)c4ccccc4)C(C)=C1C3(C)C)[C@]1(OC(C)=O)CO[C@@H]1C[C@@H]2O` have recorded ΔTm that is -2 °C or more?
True

Does the molecule `CC1CCN(C(=O)[C@H](CCn2cccc2C#N)NS(=O)(=O)c2cccc3[nH]ccc23)CC1` have recorded ΔTm that is -2 °C or more?
True

Does the molecule CC1CNCCc2c1nc1ccnn1c2N1CC(C(=O)N2CCC(C)(C)C2)C1 (centres undefined) have recorded ΔTm that is -2 °C or more?
True

Does the molecule `COc1cc(C)c(S(=O)(=O)N(C)CCOCC(=O)N(C)[C@H]2CCC[C@@H](N3CCN(C)CC3)C2)c(C)c1` have recorded ΔTm that is -2 °C or more?
True

Does the molecule `Nc1nc(-c2nn(Cc3ccccc3F)c3ncccc23)ncc1C1CC1` have recorded ΔTm that is -2 °C or more?
True

Does the molecule `CC(C)N1CCN(Cc2cnc(-c3cc(-c4cccc5[nH]ccc45)cc4[nH]ncc34)o2)CC1` have recorded ΔTm that is -2 °C or more?
False

Does the molecule `CCOCCn1cc(C(=O)Nc2ccc(-n3nc(-c4cccnc4)cc3C(F)(F)F)cn2)ccc1=O` have recorded ΔTm that is -2 °C or more?
True

Does the molecule `CNC(=O)c1cc(C(=O)N[C@H]2[C@@H]3COC[C@@H]32)cc2c1O[C@H](CF)[C@H]2c1ccccc1` have recorded ΔTm that is -2 °C or more?
False
